Assignment: determine reported protein stability index for the given variants.
B1: KCNA4 (parent)
chain: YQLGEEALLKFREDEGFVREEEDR

Variants of: B1
runDescription: protein stability index of a GFP-peptide fusion (GPS, HEK-293T) (PSI 1-6); higher = more stable;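 note: lentivirally expressed fusions sorted by FACS into six bins by GFP to DsRed ratio, PSI derived from sequencing read proportions per bin multiplied by bin number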
experimentalSetup: c terminus: a fixed tail appended
Format: numeric value only, no unit, no commentary.

### Prompt Report protein stability index for "R19V" please.
### Response 4.59

### Prompt Report protein stability index for "F17K" please.
### Response 4.51

### Prompt Report protein stability index for "E13A" please.
### Response 3.23

### Prompt Report protein stability index for "K10D" please.
### Response 5.55

### Prompt Report protein stability index for "Y1W" please.
### Response 5.25

### Prompt Report protein stability index for "L9C" please.
### Response 4.92

### Prompt Report protein stability index for "E15F" please.
### Response 3.83

### Prompt Report protein stability index for "R24S" please.
### Response 4.65

### Prompt Report protein stability index for "L9H" please.
### Response 4.96

### Prompt Report protein stability index for "L9E" please.
### Response 5.37

### Prompt Report protein stability index for "E6R" please.
### Response 3.46

### Prompt Report protein stability index for "R19W" please.
### Response 4.4

### Prompt Report protein stability index for "L9A" please.
### Response 4.88

### Prompt Report protein stability index for "R19M" please.
### Response 4.62

### Prompt Report protein stability index for "D14V" please.
### Response 3.39

### Prompt Report protein stability index for "E5K" please.
### Response 3.3

### Prompt Report protein stability index for "R12H" please.
### Response 4.75

### Prompt Report protein stability index for "F11S" please.
### Response 5.44

### Prompt Report protein stability index for "K10V" please.
### Response 2.88

### Prompt Report protein stability index for "R12K" please.
### Response 4.92

### Prompt Report protein stability index for "F17S" please.
### Response 4.56

### Prompt Report protein stability index for "E21L" please.
### Response 3.07

### Prompt Report protein stability index for "E22P" please.
### Response 4.16

### Prompt Report protein stability index for "E21F" please.
### Response 4.06

### Prompt Report protein stability index for "E13Y" please.
### Response 4.02

### Prompt Report protein stability index for "F17T" please.
### Response 4.5

### Prompt Report protein stability index for "E22F" please.
### Response 3.82

### Prompt Report protein stability index for "E5H" please.
### Response 3.76
